Test system: Hs578T multi-cell spheroids, viability
Test: Anticancer human tumor Hs578T cell line growth inhibition [IpAb];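 further: drug exposure lasted 7 days before readout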
Conditions: second compound 0.316 µM; first compound 0.316 µM; stronger effect = lower value
Experimental: Combinatorial screen of targeted agents with ipatasertib and abemaciclib in multi-cell type tumor spheroids […] Compounds. […] If the clinical Cmax for an agent had not been determined, the highest concentration tested was 10 microM. NCI60 Cell Culture. […] The optimal seeding densities for each of the cell lines at each time point assessed were determined prior to performing the concentration response studies. […]
Heads up, the class ranges for viability, T/C are lower range (below 60%), middle range (60% to below 90%), upper range (90% or more)

>  <Compound>
C=CCn1c(=O)c2cnc(Nc3ccc(N4CCN(C)CC4)cc3)nc2n1-c1cccc(C(C)(C)O)n1 + CCN1CCN(Cc2ccc(Nc3ncc(F)c(-c4cc(F)c5nc(C)n(C(C)C)c5c4)n3)nc2)CC1

>  <Measurement target>
Hs578T multi-cell spheroids, viability

>  <Class name>
middle range

$$$$
>  <Compound>
COc1c(OCCCN2CCOCC2)ccc2c3n(c(=NC(=O)c4cnc(N)nc4)nc12)CCN3 + CCN1CCN(Cc2ccc(Nc3ncc(F)c(-c4cc(F)c5nc(C)n(C(C)C)c5c4)n3)nc2)CC1

>  <Measurement target>
Hs578T multi-cell spheroids, viability

>  <Class name>
lower range

$$$$
>  <Compound>
C=CCn1c(=O)c2cnc(Nc3ccc(N4CCN(C)CC4)cc3)nc2n1-c1cccc(C(C)(C)O)n1 + CC(C)NCC(C(=O)N1CCN(c2ncnc3c2C(C)CC3O)CC1)c1ccc(Cl)cc1

>  <Measurement target>
Hs578T multi-cell spheroids, viability

>  <Class name>
lower range

$$$$
>  <Compound>
C=CC(=O)N1CCN(c2nc(=O)n(-c3c(C)ccnc3C(C)C)c3nc(-c4c(O)cccc4F)c(F)cc23)C(C)C1 (stereo not given) + CCN1CCN(Cc2ccc(Nc3ncc(F)c(-c4cc(F)c5nc(C)n(C(C)C)c5c4)n3)nc2)CC1

>  <Measurement target>
Hs578T multi-cell spheroids, viability

>  <Class name>
upper range

$$$$
>  <Compound>
COc1c(OCCCN2CCOCC2)ccc2c3n(c(=NC(=O)c4cnc(N)nc4)nc12)CCN3 + CC(C)NCC(C(=O)N1CCN(c2ncnc3c2C(C)CC3O)CC1)c1ccc(Cl)cc1

>  <Measurement target>
Hs578T multi-cell spheroids, viability

>  <Class name>
lower range

$$$$

Any idea which band Cn1nccc1Nc1nccc(-c2ccn(C(CO)c3ccc(Cl)c(F)c3)c(=O)c2)n1 (stereo not given) + CC(C)NCC(C(=O)N1CCN(c2ncnc3c2C(C)CC3O)CC1)c1ccc(Cl)cc1 is in? upper range

---

tested on: Hs578T multi-cell spheroids, viability; assay: Anticancer human tumor Hs578T cell line growth inhibition [IpAb]; conditions: curve of compound;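 further: drug exposure lasted 7 days before readout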
Quick list: IC50 per entry.

>  <Molecule>
Cn1ncnc1[C@H]1c2n[nH]c(=O)c3cc(F)cc(c23)N[C@@H]1c1ccc(F)cc1

>  <Quantity kind>
IC50

>  <Reported>
> 100 nM

$$$$
>  <Molecule>
CC(=O)c1c(C)c2cnc(Nc3ccc(N4CCNCC4)cn3)nc2n(C2CCCC2)c1=O

>  <Quantity kind>
IC50

>  <Reported>
> 300 nM

$$$$

Alright, here's another molecule for you.
Query (molecule): C=CC(=O)N1CCN(c2nc(=O)n(-c3c(C)ccnc3C(C)C)c3nc(-c4c(O)cccc4F)c(F)cc23)C(C)C1 (stereo not drawn) ; field requested: IC50 > 10000 nM

---

Quick list: viability, T/C per entry.
Tested on: Hs578T multi-cell spheroids, viability
Assay: Anticancer human tumor Hs578T cell line growth inhibition [IpAb];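 further: drug exposure lasted 7 days before readout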
Conditions: second compound 1 µM; first compound 0.00316 µM; stronger effect = lower value
Description: Combinatorial screen of targeted agents with ipatasertib and abemaciclib in multi-cell type tumor spheroids […] Compounds. […] If the clinical Cmax for an agent had not been determined, the highest concentration tested was 10 microM. NCI60 Cell Culture. […] The optimal seeding densities for each of the cell lines at each time point assessed were determined prior to performing the concentration response studies. […]
Dear colleague, please return just the value in %, with no unit written.

>  <Compound>
Cn1ncnc1[C@H]1c2n[nH]c(=O)c3cc(F)cc(c23)N[C@@H]1c1ccc(F)cc1 + CCN1CCN(Cc2ccc(Nc3ncc(F)c(-c4cc(F)c5nc(C)n(C(C)C)c5c4)n3)nc2)CC1

>  <viability, T/C (%)>
104

$$$$
>  <Compound>
CC(C)n1nc(-c2ccc3oc(N)nc3c2)c2c(N)ncnc21 + CC(C)NCC(C(=O)N1CCN(c2ncnc3c2C(C)CC3O)CC1)c1ccc(Cl)cc1

>  <viability, T/C (%)>
37.2

$$$$

Alright, here's another compound for you.
Query (compound): CC(C)n1nc(-c2ccc3oc(N)nc3c2)c2c(N)ncnc21 + CCN1CCN(Cc2ccc(Nc3ncc(F)c(-c4cc(F)c5nc(C)n(C(C)C)c5c4)n3)nc2)CC1 ; field requested: viability, T/C 69

---

Quick list: viability, T/C per entry.
test system: Hs578T multi-cell spheroids, viability; assay: Anticancer human tumor Hs578T cell line growth inhibition [IpAb]; conditions: second compound 0.316 µM; first compound 0.316 µM; stronger effect = lower value;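 further: drug exposure lasted 7 days before readout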

>  <Compound>
Cn1nccc1Nc1nccc(-c2ccn(C(CO)c3ccc(Cl)c(F)c3)c(=O)c2)n1 (stereo unspecified) + CCN1CCN(Cc2ccc(Nc3ncc(F)c(-c4cc(F)c5nc(C)n(C(C)C)c5c4)n3)nc2)CC1

>  <Reported>
86%

$$$$

Lab request: please report viability, T/C under test system Hs578T multi-cell spheroids, viability for Cn1ncc(Cl)c1-c1cc(C(=O)NC(CN)Cc2cccc(F)c2)sc1Cl (stereo unspecified) + CCN1CCN(Cc2ccc(Nc3ncc(F)c(-c4cc(F)c5nc(C)n(C(C)C)c5c4)n3)nc2)CC1 56.7%

Lab request: please report viability, T/C under test system Hs578T multi-cell spheroids, viability for Cn1ncc(Cl)c1-c1cc(C(=O)NC(CN)Cc2cccc(F)c2)sc1Cl (stereo unspecified) + CC(C)NCC(C(=O)N1CCN(c2ncnc3c2C(C)CC3O)CC1)c1ccc(Cl)cc1 67.1%

---

system: Hs578T multi-cell spheroids, viability; assay: Anticancer human tumor Hs578T cell line growth inhibition [IpAb]; conditions: second compound 0.0316 µM; first compound 3.16 µM; stronger effect = lower value;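 further: drug exposure lasted 7 days before readout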
Doc: threshold 60% (exclusive). Items with viability, T/C beneath it return y; others return n.

>  <Compound>
C=CC(=O)N1CCN(c2nc(=O)n(-c3c(C)ccnc3C(C)C)c3nc(-c4c(O)cccc4F)c(F)cc23)C(C)C1 (configuration not stated) + CCN1CCN(Cc2ccc(Nc3ncc(F)c(-c4cc(F)c5nc(C)n(C(C)C)c5c4)n3)nc2)CC1

>  <Class name>
n

$$$$

In plain terms, does C=CCn1c(=O)c2cnc(Nc3ccc(N4CCN(C)CC4)cc3)nc2n1-c1cccc(C(C)(C)O)n1 + CCN1CCN(Cc2ccc(Nc3ncc(F)c(-c4cc(F)c5nc(C)n(C(C)C)c5c4)n3)nc2)CC1 come in under 60% for viability, T/C? y

In plain terms, does CCCS(=O)(=O)Nc1ccc(F)c(C(=O)c2c[nH]c3ncc(-c4ccc(Cl)cc4)cc23)c1F + CCN1CCN(Cc2ccc(Nc3ncc(F)c(-c4cc(F)c5nc(C)n(C(C)C)c5c4)n3)nc2)CC1 come in under 60% for viability, T/C? n

In plain terms, does Cn1ncc(Cl)c1-c1cc(C(=O)NC(CN)Cc2cccc(F)c2)sc1Cl (configuration not stated) + CCN1CCN(Cc2ccc(Nc3ncc(F)c(-c4cc(F)c5nc(C)n(C(C)C)c5c4)n3)nc2)CC1 come in under 60% for viability, T/C? y

In plain terms, does Cc1nc(NC(=O)N2CCCC2C(N)=O)sc1-c1ccnc(C(C)(C)C(F)(F)F)c1 (configuration not stated) + CCN1CCN(Cc2ccc(Nc3ncc(F)c(-c4cc(F)c5nc(C)n(C(C)C)c5c4)n3)nc2)CC1 come in under 60% for viability, T/C? y

In plain terms, does CC1(C)CCC(CN2CCN(c3ccc(C(=O)NS(=O)(=O)c4ccc(NCC5CCOCC5)c([N+](=O)[O-])c4)c(Oc4cnc5[nH]ccc5c4)c3)CC2)=C(c2ccc(Cl)cc2)C1 + CCN1CCN(Cc2ccc(Nc3ncc(F)c(-c4cc(F)c5nc(C)n(C(C)C)c5c4)n3)nc2)CC1 come in under 60% for viability, T/C? n

---

system: Hs578T multi-cell spheroids, viability; experiment: Anticancer human tumor Hs578T cell line growth inhibition [IpAb]; conditions: second compound 10 µM; first compound 0.0316 µM; stronger effect = lower value;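 further: drug exposure lasted 7 days before readout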
Quick list: viability, T/C per entry.
Dear colleague, please return just the value in %, with no unit written.

# annotated cases, reported viability, T/C shown
>  <Compound>
Cc1nc(NC(=O)N2CCCC2C(N)=O)sc1-c1ccnc(C(C)(C)C(F)(F)F)c1 (stereo not drawn) + CC(C)NCC(C(=O)N1CCN(c2ncnc3c2C(C)CC3O)CC1)c1ccc(Cl)cc1

>  <viability, T/C / %>
45.3

$$$$
>  <Compound>
CC1(C)CCC(CN2CCN(c3ccc(C(=O)NS(=O)(=O)c4ccc(NCC5CCOCC5)c([N+](=O)[O-])c4)c(Oc4cnc5[nH]ccc5c4)c3)CC2)=C(c2ccc(Cl)cc2)C1 + CC(C)NCC(C(=O)N1CCN(c2ncnc3c2C(C)CC3O)CC1)c1ccc(Cl)cc1

>  <viability, T/C / %>
46.7

$$$$

Alright, here's another compound for you.
Query (compound): Cn1nccc1Nc1nccc(-c2ccn(C(CO)c3ccc(Cl)c(F)c3)c(=O)c2)n1 (stereo not drawn) + CC(C)NCC(C(=O)N1CCN(c2ncnc3c2C(C)CC3O)CC1)c1ccc(Cl)cc1 ; field requested: viability, T/C 48.1

Ref: PubChem BioAssay AID2060331
